Measured protein stability index accompanies every entry in the list below.
Tested on: Saccharomyces cerevisiae
test_protocol: protein stability index of tFT-peptide fusion (C-terminal peptide) (PSI (0-1 scale)); higher = more stable (slower turnover)
test_settings: genetic background: cdc34-1; temperature: 37 C
Response field accepts a number only; no unit should be typed.

Below, each entry is followed by its recorded protein stability index result.
INSERT INTO assay_data (seq, reported_value) VALUES
  ('FVVHPARYYLVL', 0.558),
  ('PRFLRWLFSLLI', 0.739),
  ('VQWPLLVVGCMG', 0.271),
  ('FAIPFVLFFRVT', 0.161),
  ('KCEKGLYCCIAF', 0.608);

Read the next record carefully.
IN: // returns reported protein stability index for input LVFGFSLILRVG
OUT: 0.168

====

System: Saccharomyces cerevisiae
test_protocol: protein stability index of tFT-peptide fusion (C-terminal peptide) (PSI (0-1 scale)); higher = more stable (slower turnover)
test_settings: genetic background: wild type; temperature: 30 C
measure: protein stability index
Response field accepts a number only; no unit should be typed.

Below, each entry is followed by its recorded protein stability index result.
INSERT INTO results (seq, reported_value) VALUES
  ('EVDDDGEIDGLF [ADE3 C-terminal 12 aa]', 0.692),
  ('RDHDLKDCGDIF [OSH2 C-terminal 12 aa]', 0.698),
  ('REWASNTVKKEK [EMC5 C-terminal 12 aa]', 0.692),
  ('HHLTYLPSVPSL [MMO1 C-terminal 12 aa]', 0.71),
  ('PIKEVLLENWDQ [PUS5 C-terminal 12 aa]', 0.683),
  ('NYRLEEQDVLTW [LYS14 C-terminal 12 aa]', 0.693);

IN: Tell me reported protein stability index for TEAMNSEIDGTK [ATG16 C-terminal 12 aa] , tested with Saccharomyces cerevisiae.
OUT: 0.703

IN: And the next one, NQRSFNDKSKRD [CAX4 C-terminal 12 aa] ?
OUT: 0.69

====

Tested on: Saccharomyces cerevisiae
test_protocol: protein stability index of tFT-peptide fusion (C-terminal peptide) (PSI (0-1 scale)); higher = more stable (slower turnover)
test_settings: genetic background: das1 deletion; temperature: 30 C
Measured protein stability index accompanies every entry in the list below.
Response field accepts a number only; no unit should be typed.

Below, each entry is followed by its recorded protein stability index result.
INSERT INTO measurements (seq, system_under_test, reported_value) VALUES
  ('NLKNGVTLESPE [UBP12 C-terminal 12 aa]', 'Saccharomyces cerevisiae', 0.716),
  ('ALPTYTMEYLDI [UTP8 C-terminal 12 aa]', 'Saccharomyces cerevisiae', 0.72),
  ('PTPKALTNEKTH [MGR1 C-terminal 12 aa]', 'Saccharomyces cerevisiae', 0.687),
  ('DIEVDHTKSTDP [DPB3 C-terminal 12 aa]', 'Saccharomyces cerevisiae', 0.692),
  ('VKHAEYAINAFF [YPR147C C-terminal 12 aa]', 'Saccharomyces cerevisiae', 0.709),
  ('RVSRMRAKRKYQ [YOR300W C-terminal 12 aa]', 'Saccharomyces cerevisiae', 0.712);

Read the next record carefully.
IN: // returns reported protein stability index for input PQGFEIIELLNF [ROM1 C-terminal 12 aa]
OUT: 0.717

====

Test system: Saccharomyces cerevisiae
test_protocol: protein stability index of tFT-peptide fusion (C-terminal peptide) (PSI (0-1 scale)); higher = more stable (slower turnover)
test_settings: genetic background: wild type; temperature: 30 C
measure: protein stability index
Response field accepts a number only; no unit should be typed.

Below, each entry is followed by its recorded protein stability index result.
INSERT INTO results (seq, reported_value) VALUES
  ('PHSPPRPLPPPL', 0.703),
  ('PPPRPPGPPLPH', 0.702),
  ('STWSLLKVGPAR', 0.679),
  ('SICFWCKHWSDV', 0.72),
  ('GPPPPPPPASPH', 0.715);

IN: // returns reported protein stability index for input LVAAEARIGFAV
OUT: 0.7

IN: And the next one, WFFVADVFKSWL ?
OUT: 0.704

IN: And the next one, RGDGAGQARGVV ?
OUT: 0.684

IN: And the next one, VLLATPFSAIFR ?
OUT: 0.691

IN: And the next one, SSNKSKNNHSNM ?
OUT: 0.688

IN: And the next one, TCRGGNPFRACC ?
OUT: 0.707

IN: And the next one, GVCSRVFLGRVE ?
OUT: 0.684

====

Measured protein stability index accompanies every entry in the list below.
System: Saccharomyces cerevisiae
test_protocol: protein stability index of tFT-peptide fusion (C-terminal peptide) (PSI (0-1 scale)); higher = more stable (slower turnover)
test_settings: genetic background: wild type; temperature: 30 C
Response field accepts a number only; no unit should be typed.

Below, each entry is followed by its recorded protein stability index result.
INSERT INTO assay_data (seq, measure, reported_value) VALUES
  ('HSLRPPPPPAPT', 'protein stability index', 0.715),
  ('VRVGNYTRARCK', 'protein stability index', 0.714);

Read the next record carefully.
IN: // returns reported protein stability index for input DKWVRDCLTESR
OUT: 0.691

====

Tested on: Saccharomyces cerevisiae
test_protocol: protein stability index of tFT-peptide fusion (C-terminal peptide) (PSI (0-1 scale)); higher = more stable (slower turnover)
test_settings: genetic background: das1 deletion; temperature: 37 C
measure: protein stability index
Response field accepts a number only; no unit should be typed.

Below, each entry is followed by its recorded protein stability index result.
INSERT INTO assay_data (seq, system_under_test, reported_value) VALUES
  ('LFGFLCVVMCCG', 'Saccharomyces cerevisiae', 0.511),
  ('FFRLFAPLLVVL', 'Saccharomyces cerevisiae', 0.23),
  ('VFFLRVHFWSFF', 'Saccharomyces cerevisiae', 0.534),
  ('VFFLVHFHLPMF', 'Saccharomyces cerevisiae', 0.561),
  ('RKFRAWIRITRT', 'Saccharomyces cerevisiae', 0.715);

IN: // returns reported protein stability index for input GRLVPVILLKLV
OUT: 0.563

IN: And the next one, RLSGACILLSLV ?
OUT: 0.681

IN: And the next one, ILHRRCGLLLQI ?
OUT: 0.538

====

System: Saccharomyces cerevisiae
test_protocol: protein stability index of tFT-peptide fusion (C-terminal peptide) (PSI (0-1 scale)); higher = more stable (slower turnover)
test_settings: genetic background: wild type; temperature: 37 C
measure: protein stability index
Response field accepts a number only; no unit should be typed.

Below, each entry is followed by its recorded protein stability index result.
INSERT INTO results (seq, system_under_test, reported_value) VALUES
  ('TNFVVRLRFVLF', 'Saccharomyces cerevisiae', 0.419),
  ('YIRINNIYWKKS', 'Saccharomyces cerevisiae', 0.536);

IN: Tell me reported protein stability index for CPVSFSFCLKVL , tested with Saccharomyces cerevisiae.
OUT: 0.115

IN: And the next one, SVLVWVFGLFVI ?
OUT: 0.495

IN: And the next one, VVVCSLVPLFVL ?
OUT: 0.318

IN: And the next one, GVRAGVRRAGVG ?
OUT: 0.402

IN: And the next one, LFMRGEDEMFSV ?
OUT: 0.766

IN: And the next one, RGWGGGTWVKMG ?
OUT: 0.203

IN: And the next one, KALSSSYFGTRL ?
OUT: 0.713

IN: And the next one, FPRQFVYLPLLF ?
OUT: 0.595

IN: And the next one, CLLSRYRVFFLG ?
OUT: 0.351

IN: And the next one, LLTAARAQLFAV ?
OUT: 0.617

IN: And the next one, WFFTDIVMLVRV ?
OUT: 0.233

====

System: Saccharomyces cerevisiae
test_protocol: protein stability index of tFT-peptide fusion (C-terminal peptide) (PSI (0-1 scale)); higher = more stable (slower turnover)
test_settings: genetic background: doa10 deletion; temperature: 30 C
Could you label it True if measured protein stability index is 0.4 or higher, and False otherwise?

INSERT INTO assay_data (seq, cat) VALUES
  ('ISVSVVFFVLRF', 'False');

IN: Does the reported protein stability index for LRFSLLRVGWLC fall at or above the 0.4 mark?
OUT: False

IN: And the next one, KSEKTYTYQVIQ ?
OUT: False

IN: And the next one, LFMRGEDEMFSV ?
OUT: True

IN: And the next one, LRFFLPFLLSLP ?
OUT: False

IN: And the next one, VFLFSLCIRLSR ?
OUT: False

====

Test system: Saccharomyces cerevisiae
test_protocol: protein stability index of tFT-peptide fusion (C-terminal peptide) (PSI (0-1 scale)); higher = more stable (slower turnover)
test_settings: genetic background: cdc34-1; temperature: 37 C
Measured protein stability index accompanies every entry in the list below.
Response field accepts a number only; no unit should be typed.

Below, each entry is followed by its recorded protein stability index result.
INSERT INTO assay_data (seq, measure, reported_value) VALUES
  ('GMNGLFFIAMLG', 'protein stability index', 0.53),
  ('VFSRVLSVLLSA', 'protein stability index', 0.493),
  ('VAWCVWCWWWAV', 'protein stability index', 0.188),
  ('YGWGFLFILTLM', 'protein stability index', 0.15),
  ('FFVFSFVLFFPL', 'protein stability index', 0.347),
  ('RSLSFGMVLCYS', 'protein stability index', 0.358),
  ('PPPPHSAPLFLS', 'protein stability index', 0.604);

IN: // returns reported protein stability index for input MALAVRVVYCGA
OUT: 0.349
